Hello, the source for this data is patent US9181186B2, in case you need it.

Target: human GPR40 (Homo sapiens, UniProt O14842)
Construct: expressed in transfected cells
Sequence (O14842 whole entry): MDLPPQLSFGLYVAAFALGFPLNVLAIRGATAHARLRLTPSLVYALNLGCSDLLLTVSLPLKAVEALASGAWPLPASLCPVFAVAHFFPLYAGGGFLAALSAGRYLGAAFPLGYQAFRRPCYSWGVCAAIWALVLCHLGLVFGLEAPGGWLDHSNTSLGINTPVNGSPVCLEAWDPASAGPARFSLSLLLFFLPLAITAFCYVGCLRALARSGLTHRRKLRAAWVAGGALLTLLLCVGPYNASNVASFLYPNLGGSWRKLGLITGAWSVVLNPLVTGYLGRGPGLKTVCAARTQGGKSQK
Test: Evaluation of human GPR40 agonist activity with increase in intracellular Ca2+ concentration as an index (FLIPR Tetra)
Format: cell-based
Conditions: test compound 1 μM; CHO(dhfr−) cells stably expressing human GPR40; 100% = 1 μM WO2009/048527 Example 99.2, 0% = DMSO
PROPERTY_MEASURED: activation at 1 µM (%)

>>> value("COc1ccc(F)c(-c2ncc(COc3cccc(C(CC(=O)O)C4CC4)c3)cc2OCC(C)C)c1 (stereo not shown)")
104
>>> value("COc1ccc(F)c(-c2ccc(COc3cc(C(CC(=O)O)C4CC4)ncn3)nc2CC(C)(C)C)c1 (stereo not shown)")
106
>>> value("COc1ccc(F)c(-c2ncc(COc3cc(C(CC(=O)O)C4CC4)ncn3)cc2OCC(C)C)c1 (stereo not shown)")
104
>>> value("COc1ccc(F)c(-c2ncc(COc3cc(C(CC(=O)O)C4CC4)ncn3)cc2CC(C)(C)C)c1 (stereo not shown)")
101
>>> value("COc1ccc(F)c(-c2ncc(COc3cccc(C(CC(=O)O)C4CC4)c3)cc2CC(C)(C)C)c1 (stereo not shown)")
118
>>> value("COc1ccc(F)c(-c2ncc(COc3cc(C(CC(=O)O)C4CC4)ncn3)cc2OCC(C)(C)C)c1 (stereo not shown)")
106
>>> value("COc1ccc(F)c(-c2ccc(COc3cc(C(CC(=O)O)C4CC4)ccn3)nc2CC(C)(C)C)c1 (stereo not shown)")
112
>>> value("COc1ccc(F)c(-c2ccc(COc3cc(C(CC(=O)O)C4CC4)ccc3OC)nc2CC(C)(C)C)c1 (stereo not shown)")
112
>>> value("COc1ccc(F)c(-c2ccc(COc3ccc(F)c(CCC(=O)O)c3)nc2CC(C)(C)C)c1")
109
>>> value("COc1ccc(F)c(-c2ncc(COc3cc(C(CC(=O)O)C4CC4)ccn3)cc2CC(C)(C)C)c1 (stereo not shown)")
113

* * *

Biological target: human GPR40 (Homo sapiens, UniProt O14842)
Construct: expressed in transfected cells
Experiment: Evaluation of human GPR40 agonist activity with increase in intracellular Ca2+ concentration as an index (FLIPR Tetra)
Format: cell-based
Conditions: test compound 1 μM; CHO(dhfr−) cells stably expressing human GPR40; 100% = 1 μM WO2009/048527 Example 99.2, 0% = DMSO
PROPERTY_MEASURED: activation at 1 µM (%)

>>> value("COc1ccc(F)c(-c2ccc(COc3ccc(OC)c(CCC(=O)O)c3)nc2CC(C)(C)C)c1 [Example 18]")
109
>>> value("COc1ccc(F)c(-c2ccc(COc3ccc(C)c(CCC(=O)O)c3)nc2CC(C)(C)C)c1 [Example 17]")
109
>>> value("COc1ccc(F)c(-c2ccc(COc3cc(F)cc(CCC(=O)O)c3)nc2CC(C)(C)C)c1 [Example 16]")
109
>>> value("COc1ccc(F)c(-c2ccc(COc3cccc(C(CC(=O)O)C4CC4)c3)nc2OCC(C)C)c1 (stereo not shown) [Example 1]")
100
>>> value("COc1ccc(F)c(-c2ccc(COc3cc(CCC(=O)O)ccc3C)nc2CC(C)(C)C)c1 [Example 13]")
110
>>> value("COc1ccc(F)c(-c2cnc(COc3cc(C(CC(=O)O)C4CC4)ncn3)nc2OCC(C)C)c1 (stereo not shown) [Example 41]")
110
>>> value("COc1ccc(F)c(-c2ncc(COc3cc(C(CC(=O)O)C4CC4)c(F)cn3)cc2CC2(C#N)CCCC2)c1 (stereo not shown) [Example 43]")
115
>>> value("COc1ccc(F)c(-c2ccc(COc3cccc(CCC(=O)O)c3)nc2CC(C)(C)C)c1 [Example 29]")
103
>>> value("COc1ccc(F)c(-c2ccc(COc3cccc(C(CC(=O)O)C4CC4)c3)nc2CC(C)(C)C)c1 (stereo not shown) [Example 11]")
100
>>> value("COc1ccc(F)c(-c2ccc(COc3cccc(CCC(=O)O)c3F)nc2CC(C)(C)C)c1 [Example 22]")
103
>>> value("COc1cc(CCC(=O)O)cc(OCc2ccc(-c3cc(OC)ccc3F)c(CC(C)(C)C)n2)c1 [Example 15]")
103
>>> value("COc1ccc(F)c(-c2ccc(COc3cc(C(CC(=O)O)C4CC4)ncn3)nc2OCC(C)C)c1 (stereo not shown) [Example 2]")
107
>>> value("COc1ccc(F)c(-c2ccc(COc3cc(C(CC(=O)O)C4CC4)c(F)cn3)nc2CC(C)(C)C)c1 (stereo not shown) [Example 42]")
115
>>> value("COc1ccc(F)c(-c2ccc(COc3cc(C)cc(CCC(=O)O)c3)nc2CC(C)(C)C)c1 [Example 23]")
99
>>> value("COc1ccc(F)c(-c2cnc(COc3cc(C(CC(=O)O)C4CC4)ncn3)cc2OCC(C)C)c1 (stereo not shown) [Example 6]")
98
>>> value("COc1ccc(F)c(-c2ncc(COc3cc(C(CC(=O)O)C4CC4)ncn3)cc2OCCC(F)(F)F)c1 (stereo not shown) [Example 37]")
101
